Listed next: entries and their corresponding TGI.
Tested on: SK-MEL-28 melanoma
PROTOCOL_DESCRIPTION: NCI tumour cell line growth inhibition, 48 h
OUTCOME_MEASURE: TGI

COMPOUND | OUTCOME_MEASURE | READOUT_VALUE
CC[n+]1[b-](C(C)(C)C)n(/N=C/C(C)(C)C)[b-](C(C)(C)C)[n+]1CC | TGI | > 100 µM
N#CC1=C(c2ccccc2)NNC(c2ccc(Cl)cc2)CC1=O (stereo not drawn) | TGI | > 100 µM
S=c1[nH]c2ccc(Br)cc2c(=S)s1 | TGI | > 100 µM

---

Test system: HOP-62 NSCLC
PROTOCOL_DESCRIPTION: NCI tumour cell line growth inhibition, 48 h
Listed next: entries and their corresponding TGI.

MOLECULE | TGI
CSC(=Nc1ccccc1)N(c1ccccc1)c1nc(=[N+](C)C)ss1 | 27.2 µM
O=C1Sc2ccccc2C(=O)N2CSCC12 (stereo not drawn) | > 100 µM
CN(C(=O)c1ccc([N+](=O)[O-])cc1)c1ccccc1 | > 100 µM
COc1c(C)n(CCO)ccc1=O | > 100 µM
Cc1ccc([N+](=O)[O-])cc1N=NC(=O)NNc1cc([N+](=O)[O-])ccc1C | > 100 µM
COc1cc2cc(Oc3ccc(NC(=O)c4cc(C(F)(F)F)cc(C(F)(F)F)c4)cc3)c(C)nc2cc1OC | > 50 µM
CC(=O)N1CCN(c2ccc(OCC3COC(Cn4ccnc4)(c4ccc(Cl)cc4Cl)O3)cc2)CC1 (stereo not drawn) | > 100 µM
CCCCn1cnc2c(c(CC#N)nn2-c2ccccc2)c1=N | > 100 µM

---

System: CCRF-CEM leukemia
PROTOCOL_DESCRIPTION: NCI tumour cell line growth inhibition, 48 h
OUTCOME_MEASURE: TGI (µM)

MOLECULE | READING_QUALIFIER | READOUT_VALUE
COC(=O)/C(=N/O)C(C(=O)C=C(C)C)C(=O)C(=O)Nc1nc2ccc([N+](=O)[O-])cc2s1 (stereo not drawn) | = | 74.7
CC[n+]1[b-](C(C)(C)C)n(/N=C/C(C)(C)C)[b-](C(C)(C)C)[n+]1CC | > | 100
COc1cc2cc(Oc3ccc(NC(=O)c4cc(C(F)(F)F)cc(C(F)(F)F)c4)cc3)c(C)nc2cc1OC | > | 50
Nc1nc(N)c(N=O)c(Nc2ccc(Br)cc2)n1 | > | 100
O=C(O)c1cc(-c2ccc3c(O)c(O)ccc3c2)ccc1O | = | 33.6
O=C(CN(c1ccccc1)c1ccccc1)N1c2ccccc2C2C=CC=CC21 (stereo not drawn) | > | 36.3
CN(Cc1ccccc1)c1cc(=O)n(C)c(=O)[nH]1 | > | 100
CCOP(=O)(OCC)C(C(=O)OC)C(=O)C(=O)Nc1ccc(Cl)cc1Cl (stereo not drawn) | > | 100
CCN1c2ccccc2-c2c3c1cc(C)cc3c1ccccc1[n+]2CC | = | 2.83
O=[N+]([O-])c1ccc(/C=C/c2cc(-c3ccccc3)nc3ccc4ccccc4c23)cc1 | > | 100
c1ccc2c(c1)[nH]c1c2cc[n+]2cc3c(cc12)CCCC3 | = | 12.7
C=CC(=O)N1CN(C(=O)C=C)CN(C(=O)C=C)C1 | = | 9.78
O=C(/C(=C\c1c(-c2ccccc2)[nH]c2ccccc12)S(=O)(=O)c1ccccc1)c1ccccc1 | > | 100
CCCCCCCCCCNC(=O)CI | = | 0.482
CC(O)CCCOC(c1ccccc1)(c1ccccc1)c1ccccc1 (stereo not drawn) | > | 67.2
O=C1NCC(NC(=O)C(F)(F)F)c2c(Br)sc(Br)c21 (stereo not drawn) | > | 100
COc1cc2c(cc1O)CCN[C@]21CS[C@@H]2c3c(OC(C)=O)c(C)c4c(c3[C@H](COC1=O)N1[C@@H]2[C@H]2c3c(cc(C)c(OC)c3O)C[C@@H]([C@@H]1O)N2C)OCO4 | = | 3.11
CSC(=Nc1ccccc1)N(c1ccccc1)c1nc(=[N+](C)C)ss1 | = | 4.48

---

Listed next: entries and their corresponding TGI.
System: SNB-19 CNS
PROTOCOL_DESCRIPTION: NCI tumour cell line growth inhibition, 48 h
OUTCOME_MEASURE: TGI

MOL | READOUT_VALUE
ClCCN(CCCl)c1ccc(CNc2ccccc2)cc1 | > 100 µM
C=CCNC(=S)N=Nc1c(O)[nH]c2ccc([N+](=O)[O-])cc12 | > 100 µM
O=C(O)C(SC1=NNC2(C(=O)N1)c1ccccc1-c1ccccc12)SC1=NNC2(C(=O)N1)c1ccccc1-c1ccccc12 | > 10 µM
c1csc(-c2ccc(-c3cccs3)c3nsnc23)c1 | > 100 µM
Clc1ccc(CSCCc2ccncc2)cc1Cl | 35.6 µM

---

Test system: M14 melanoma
PROTOCOL_DESCRIPTION: NCI tumour cell line growth inhibition, 48 h

COMPOUND | TGI
CSC(=Nc1ccccc1)N(c1ccccc1)c1nc(=[N+](C)C)ss1 | 2.5 µM
c1ccc2c(c1)c1c(n2CCOCCN2CCOCC2)CCCC1 | 30.9 µM
O=C(Cc1nc2c3c(ccc2[nH]c1=O)C(=O)c1ccccc1C3=O)C(=O)Nc1ccccc1[N+](=O)[O-] | 34 µM
S=C(/N=c1\sc(Nc2ccc(Cl)cc2)nc2sc3c(c12)CCN(N1CCc2c(sc4nc(Nc5ccc(Cl)cc5)s/c(=N\C(=S)Nc5ccc(Cl)cc5)c24)C1)C3)Nc1ccc(Cl)cc1 | > 100 µM
O=C(Oc1cc(=O)c(OC(=O)c2ccccc2)co1)c1ccccc1 | > 100 µM
N#CCc1nc(-c2ccccc2)n[nH]1 | > 100 µM
ClCCN(CCCl)c1ccc(CNc2ccccc2)cc1 | > 100 µM
C(/C=C(\Nc1ccccc1)C12CC3CC(CC(C3)C1)C2)=Nc1ccccc1 | 32.6 µM
COC(=O)C(=O)C(C(C)=O)C(=O)NCc1ccc(OC)c(OC)c1 (stereo not drawn) | > 100 µM
COC(=O)/C(=N/O)C(C(=O)C=C(C)C)C(=O)C(=O)Nc1nc2ccc([N+](=O)[O-])cc2s1 (stereo not drawn) | > 100 µM
O=C(/C=C/c1ccccc1)c1ccccc1 | > 10 µM
O=C(CC(=O)C1CCOC1=O)C(=O)Nc1cccc(Cl)c1 (stereo not drawn) | > 100 µM
COc1ccc(/C=C2\C[C@H]3[C@@H]4CCC5=C/C(=N/O)CC[C@]5(C)[C@H]4CC[C@]3(C)\C2=N\O)cc1OC | > 100 µM
COc1cc(/C=C\c2cc(OC)c(OC)c(OC)c2)cc(N/C=C\C(=O)c2c[nH]c3ccccc23)c1OC | 12.6 µM
CC[n+]1[b-](C(C)(C)C)n(/N=C/C(C)(C)C)[b-](C(C)(C)C)[n+]1CC | > 100 µM
NCCNCC1CCNCC1 | > 100 µM
NC(CC1=CS(=O)(=O)c2ccc(Cl)cc21)C(=O)O (stereo not drawn) | > 100 µM
COC(=O)C1=COC(C)C2CN3CCc4c([nH]c5ccccc45)C3CC12 (stereo not drawn) | > 100 µM
CC(=O)OCC1OC(n2cc(I)c(=O)[nH]c2=O)C(OC(C)=O)C(OC(C)=O)C1OC(C)=O (stereo not drawn) | > 100 µM
O=[N+]([O-])c1cccc(C2=NOC(C3CCCCC3)C2)c1 (stereo not drawn) | > 100 µM
O=C(Cc1ccccc1)NN1C(=O)/C(=C\c2ccccc2)SC1=Nc1ccccc1 | > 100 µM
O=C1Nc2ccccc2/C1=C1\CCc2cc(O)ccc21 | > 25 µM
CCCC(=O)C1=C(O)C(Cc2c(O)c(C)c(O)c(C(=O)CCC)c2O)=C(O)C(C)(C)C1=O | > 50 µM
COc1ccc(-c2nccn2-c2ccc(OC)cc2)cc1 | 56.7 µM
CN(C)CCNCCN | > 100 µM
CNc1ncnc2c1cnn2COCC(O)CO (stereo not drawn) | > 100 µM
COc1nc2ncc([C@@H](OC(C)=O)[C@@H](COC(C)=O)OC(C)=O)nc2c(=O)[nH]1 | > 100 µM
CC(O)CCCOC(c1ccccc1)(c1ccccc1)c1ccccc1 (stereo not drawn) | 29.1 µM

---

System: SNB-75 CNS
PROTOCOL_DESCRIPTION: NCI tumour cell line growth inhibition, 48 h

COMPOUND | TGI
Cc1cc(Nc2nc(-c3cn(-c4ccc(Cl)cc4)nn3)nc3ccccc23)n[nH]1 | > 50 µM
O=C(Oc1cc(=O)c(OC(=O)c2ccccc2)co1)c1ccccc1 | > 100 µM
NCCNCC1CCNCC1 | > 100 µM
CC1=C2C(=C[C@H]3[C@]4(C)CCCC(C)(C)[C@H]4CC[C@]34O[C@H]24)OC1=O | > 100 µM
Nc1ccccc1O.O.O=C(O)C1[O][Sb][O]C1C(=O)O (centres undefined) | 40.5 µM
Cc1cc(N/N=C/c2ccccn2)nc2ccccc12 | 15.2 µM
O=C(/C(=C\c1c(-c2ccccc2)[nH]c2ccccc12)S(=O)(=O)c1ccccc1)c1ccccc1 | > 100 µM
CCc1ccc2c(c1)C(=O)c1c-2n(CCCN=[N+]=[N-])c(=O)c2cc([N+](=O)[O-])ccc12 | > 50 µM
O=C(NC(COC(=O)C(Cc1ccccc1)NC(=O)c1ccccc1)Cc1ccccc1)c1ccccc1 (centres undefined) | > 50 µM
O=C(CC(=O)C1CCOC1=O)C(=O)Nc1cccc(Cl)c1 (centres undefined) | > 100 µM
COc1ccc(C(CC(=O)c2ccc3c(c2)OCO3)c2c(O)c3ccccc3oc2=O)cc1OC (centres undefined) | > 100 µM
COc1c(O)c2c3c(c(C)cc(O)c3c1O)C(=O)C(O)(C(C)(C)C(C)=O)C2=O (centres undefined) | > 100 µM
COC(c1ccc(C(C)(C)C)cc1)(c1ccc(C(C)(C)C)cc1)c1ccc(C(C)(C)C)cc1 | > 100 µM
c1ccc2c(c1)c1c(n2CCOCCN2CCOCC2)CCCC1 | 70.2 µM
